Items are presented alongside their recorded IC50.
- assaySystem: UniProt P04629
- experimentDescription: Human TrkA inhibition assay (Test Example 2)
- Type: biochemical
- conditionDetails: Table 153, human TrkA inhibition; read-out: IC50
- Description: Seven point five μL per well of human TrkA (PV3144, Lifetechnologies, final concentration: 1 nmol/L) suspended in the assay buffer (100 mmol/L 4-(2-hydroxyethyl)-1-piperazineethanesulfonic acid (HEPES), 10 mmol/L magnecium chloride, 0.003 vol % Brij-35, 0.004 vol % Tween20 and 1 mmol/L dithiothreitol (DTT)) was applied in a 384 well plate and the plate was pre-incubated for 15 min at room temperature with 0.4 μL of each compound (final concentration: 200 μmol/L-1 pmol/L) dissolved in DMSO. […]

Worked cases, IC50 given:
| molecule | result |
| --- | --- |
| CCOc1ncc(-c2nn(-c3ccccc3)c(NC(=O)N[C@H]3CN(CCOC)O[C@@H]3c3ccnc(F)c3)c2C)cn1 [Compound I-130] | > 1000 nM |
| COCCN1C[C@@H](NC(=O)Nc2c(C)c(C3=CCN(C(C)=O)CC3)nn2-c2ccccc2)[C@H](c2cnc(F)c(F)c2)O1 (racemic) [Compound I-49] | < 100 nM |

# evaluate next
So, COCCN1C[C@@H](NC(=O)Nc2c(C)c(-c3cnc4c(c3)ncn4C)nn2-c2ccccc2)[C@H](c2ccccc2)O1 (racemic) [Compound I-161] ? Its IC50 was < 100 nM

----------
- assaySystem: human TrkA (Homo sapiens (Human), UniProt P04629)
- Sequence (P04629 440-796): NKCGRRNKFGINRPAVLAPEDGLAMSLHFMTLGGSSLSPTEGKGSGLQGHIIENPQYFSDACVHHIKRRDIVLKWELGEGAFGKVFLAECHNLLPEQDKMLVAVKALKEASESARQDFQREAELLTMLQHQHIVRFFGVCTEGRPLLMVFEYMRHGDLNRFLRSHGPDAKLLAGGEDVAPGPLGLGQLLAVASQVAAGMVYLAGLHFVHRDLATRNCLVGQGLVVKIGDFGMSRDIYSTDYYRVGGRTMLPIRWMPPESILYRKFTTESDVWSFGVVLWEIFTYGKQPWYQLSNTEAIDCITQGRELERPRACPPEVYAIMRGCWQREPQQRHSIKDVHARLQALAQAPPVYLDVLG
- experimentDescription: Human TrkA inhibition assay (Test Example 2)
- Type: biochemical
- conditionDetails: human TrkA 1 nmol/L, ATP 500 μmol/L, 120 min at 37° C.; read-out: IC50 values (TrkA phosphorylation inhibition)
pIC50: −log10 of the molar value.
recordedEndpoint: pIC50

| compound | pIC50 |
| --- | --- |
| CNC(=O)c1cc(-c2nn(-c3ccccc3)c(NC(=O)N[C@@H]3CN(CCOC)O[C@H]3c3cnc(F)c(F)c3)c2C)cnc1OC (racemic) [Compound I-73] | 8.92 |
| CCN1C[C@@H](NC(=O)Nc2c(C)c(OCC(N)=O)nn2-c2ccccc2)[C@H](c2ccc(F)c(F)c2)O1 (racemic) [Compound I-645] | 7.17 |
| COCCN1C[C@@H](NC(=O)Nc2c(C)c(-c3cnc(OCC(F)F)nc3)nn2-c2ccccc2)[C@H](c2ccnc(F)c2)O1 (racemic) [Compound I-436] | 8.40 |
| COCCN1C[C@@H](NC(=O)Nc2c(C)c(-c3ccc(CN(C)C)nc3)nn2-c2ccccc2)[C@H](c2ccc(F)c(F)c2)O1 [Compound I-638] | 8.85 |
| COCC[C@@H]1C[C@@H](NC(=O)Nc2c(C)c(-c3cnn(C)c3)nn2-c2ccccc2)[C@H](c2ccc(F)c(F)c2)O1 [Compound I-25] | 8.54 |
| COCCN1C[C@@H](NC(=O)Nc2c(C(F)(F)F)c(C)nn2-c2ccccc2)[C@H](c2ccnc(F)c2)O1 (racemic) [Compound I-660] | 7.15 |
| COCCN1C[C@@H](NC(=O)Nc2c(C)c(-c3cnc(OC)nc3)nn2-c2ccccc2)[C@H](c2ccnc(F)c2)O1 [Compound I-322] | 8.62 |
| CCN1C[C@@H](NC(=O)Nc2c(C)c(-c3cnn(C)c3)nn2-c2ccccc2)[C@H](c2ccccc2)O1 (racemic) [Compound I-3] | 6.92 |

1. CNc1ncc(-c2nn(-c3ccccc3)c(NC(=O)N[C@@H]3CN(CCOC)O[C@H]3c3cnc(F)c(F)c3)c2C)cn1 [Compound I-135]
2. COCCN1C[C@@H](NC(=O)Nc2c(Cl)c(-c3cnc(OC)nc3)nn2-c2ccccc2)[C@H](c2ccnc(F)c2)O1 (racemic) [Compound I-674]
Of 1 and 2 , which one carries the higher reported pIC50? Answer format: the label of the selected item.
1

----------
- assaySystem: human TrkA (Homo sapiens (Human))
- experimentDescription: Human TrkA inhibition assay (Test Example 2)
- Format: biochemical
- conditionDetails: Table 152, human TrkA inhibition; read-out: IC50_nM
pIC50: −log10 of the molar value.
Items are presented alongside their recorded pIC50.

| compound | assaySystem | recordedEndpoint | result |
| --- | --- | --- | --- |
| COCC[C@@H]1O[C@@H](NC(=O)Nc2c(C)c(-c3cnn(C)c3)nn2-c2ccccc2)[C@H](c2ccccc2)O1 (racemic) [Compound I-5] | human TrkA (Homo sapiens (Human)) | pIC50 | > 7.00 |

Form: item COCCN1C[C@@H](NC(=O)Nc2c(C)c(-c3ccc(C(=O)OC(C)(C)C)cc3)nn2-c2ccccc2)[C@H](c2ccc(F)c(F)c2)O1 (racemic) [Compound I-33] ; test system human TrkA (Homo sapiens (Human)); pIC50: > 7.00

Form: item COCCN1C[C@@H](NC(=O)Nc2c(C)c(C3=CCN(C(C)=O)CC3)nn2-c2ccccc2)[C@H](c2ccnc(F)c2)O1 (racemic) [Compound I-42] ; test system human TrkA (Homo sapiens (Human)); pIC50: > 7.00

----------
Items are presented alongside their recorded IC50.
- assaySystem: human TrkA (Homo sapiens (Human), UniProt P04629)
- experimentDescription: Human TrkA inhibition assay (Test Example 2)
- Assay type: biochemical
- conditionDetails: Table 156, human TrkA inhibition; read-out: IC50

Worked cases, IC50 given:
| compound | recordedEndpoint | result |
| --- | --- | --- |
| CCOc1nn(-c2ccccc2)c(NC(=O)N[C@@H]2CN(CCOC)O[C@H]2c2ccc(F)c(F)c2)c1C [Compound I-519] | IC50 | < 100 nM |
| Cc1c(OCC2CCNCC2)nn(-c2ccccc2)c1NC(=O)N[C@@H]1CN(CCF)O[C@H]1c1ccc(F)c(F)c1 (racemic) [Compound I-560] | IC50 | < 100 nM |

# evaluate next
So, COCCN1C[C@@H](NC(=O)Nc2c(C)c(-c3cnc4c(c3)CCO4)nn2-c2ccccc2)[C@H](c2ccnc(F)c2)O1 (racemic) [Compound I-530] ? Its IC50 was < 100 nM

----------
- assaySystem: human TrkA (Homo sapiens (Human), UniProt P04629)
- experimentDescription: Human TrkA inhibition assay (Test Example 2)
- Assay type: biochemical
- conditionDetails: Table 155, human TrkA inhibition; read-out: IC50
pIC50: −log10 of the molar value.
Items are presented alongside their recorded pIC50.

Worked cases, pIC50 given:
| molecule | assaySystem | recordedEndpoint | result |
| --- | --- | --- | --- |
| CNC(=O)c1cc(-c2nn(-c3ccccc3)c(NC(=O)N[C@@H]3CNO[C@H]3c3ccc(F)c(F)c3)c2C)cnc1OC (racemic) [Compound I-474] | human TrkA (Homo sapiens (Human), UniProt P04629) | pIC50 | 6.00 to 7.00 |
| COCCN1C[C@@H](NC(=O)Nc2c(C)c(-c3cnc(N4CC(O)C4)nc3)nn2-c2ccccc2)[C@H](c2cc(F)nc(F)c2)O1 (racemic) [Compound I-321] | human TrkA (Homo sapiens (Human), UniProt P04629) | pIC50 | > 7.00 |
| COCCN1C[C@@H](NC(=O)Nc2c(C)c(-c3cnc4c(c3)CN(C)CC4)nn2-c2ccccc2)[C@H](c2ccnc(F)c2)O1 (racemic) [Compound I-440] | human TrkA (Homo sapiens (Human), UniProt P04629) | pIC50 | > 7.00 |
| COCCN1C[C@@H](NC(=O)Nc2c(C)c(-c3cc(C(=O)NC(C)(C)C)c(=O)n(C)c3)nn2-c2ccccc2)[C@H](c2ccnc(F)c2)O1 (racemic) [Compound I-389] | human TrkA (Homo sapiens (Human), UniProt P04629) | pIC50 | > 7.00 |
| COCCN1C[C@@H](NC(=O)Nc2c(C)c(-c3cnc4c(c3)CCN4)nn2-c2ccccc2)[C@H](c2ccnc(F)c2)O1 (racemic) [Compound I-351] | human TrkA (Homo sapiens (Human), UniProt P04629) | pIC50 | > 7.00 |

# evaluate next
So, COCCN1C[C@@H](NC(=O)Nc2c(C)c(-c3cnc(N4CCNCC4)nc3)nn2-c2ccccc2)[C@H](c2cc(F)nc(F)c2)O1 (racemic) [Compound I-415] ? Its pIC50 was > 7.00

----------
- assaySystem: human TrkA (Homo sapiens (Human), UniProt P04629)
- experimentDescription: Human TrkA inhibition assay (Test Example 2)
- Assay type: biochemical
- conditionDetails: Table 157, human TrkA inhibition; read-out: IC50
Items are presented alongside their recorded IC50.

Worked cases, IC50 given:
| molecule | recordedEndpoint | result |
| --- | --- | --- |
| CCN1C[C@@H](NC(=O)Nc2c(C)c(OCC(=O)NC)nn2-c2ccccc2)[C@H](c2ccc(F)c(F)c2)O1 (racemic) | IC50 | < 100 nM |
| COCCN1CC(NC(=O)Nc2c(C)c(-c3cnc(N4CC5(CCO5)C4)nc3)nn2-c2ccccc2)C(c2ccnc(F)c2)O1 (racemic) | IC50 | < 100 nM |
| CCN1C[C@@H](NC(=O)Nc2c(C)c(OCC3CNC3)nn2-c2ccccc2)[C@H](c2ccc(F)c(F)c2)O1 (racemic) | IC50 | < 100 nM |

Form: item CCN1C[C@@H](NC(=O)Nc2c(C)c(-c3cnc(C(=O)NC)c(F)c3)nn2-c2ccccc2)[C@H](c2ccc(F)c(F)c2)O1 (racemic) ; test system human TrkA (Homo sapiens (Human), UniProt P04629); IC50: < 100 nM

Form: item CCN1C[C@@H](NC(=O)Nc2c(C)c(OCC(=O)NCC(C)(C)O)nn2-c2ccccc2)[C@H](c2ccc(F)c(F)c2)O1 (racemic) ; test system human TrkA (Homo sapiens (Human), UniProt P04629); IC50: < 100 nM

Form: item `COCCN1C[C@@H](NC(=O)Nc2c(C)c(CO[Si](C)(C)C(C)(C)C)nn2-c2ccccc2)[C@H](c2ccc(F)c(F)c2)O1` ; test system human TrkA (Homo sapiens (Human), UniProt P04629); IC50: 100 to 1000 nM
